Listing of IC50 toward Collagenase 3 (Homo sapiens), each taken from a published source.
MEASURE: IC50 (nM)

| MOLECULE | MEASURE | UNIT_ANNOTATION | ASSAY_RESULT |
| --- | --- | --- | --- |
| O=C(CC(CCn1nnc2ccccc2c1=O)C(=O)O)c1cc2cc(OCc3ccc(C(F)(F)F)cc3)ccc2o1 (racemic) | IC50 | nM | 2100 |
| CNC(=O)[C@@H](NC(=O)c1ccc(-c2cccc(CNC(=O)c3ccc(C(C)C)cc3)c2)o1)C(C)C | IC50 | nM | 225 |
| Cc1[nH]c(C(=O)NCc2ccncc2)nc1-c1ccc2[nH]c(-c3nc(C(C)C)no3)cc2c1 | IC50 | nM | 18 |
| CC#CCOc1ccc(S(=O)(=O)CC2(C(=O)NO)CCN(Cc3ccc(Cl)s3)CC2)cc1 | IC50 | nM | 275 |
| CNC(=O)[C@@H](NC(=O)c1ccc(-c2cccc(CNC(=O)c3cncc(C)c3)c2)o1)C1CCCCC1 | IC50 | nM | 30 |

I = Cc1cc(-c2cc3cc(-c4cc(C(=O)NCc5ccc(C(=O)O)cc5)nn4C)ccc3[nH]2)ccc1F
II = Cc1noc(-c2cc3cc(-c4cc(C(=O)NCc5cnn(C)c5)nn4C)ccc3[nH]2)n1
III = CCNC(=O)[C@@H](NC(=O)c1ccc(-c2ccc(C#N)cc2)o1)C1CCCCC1
IV = CC(C)CCOc1ccc(S(=O)(=O)C2(C(=O)NO)CCN(Cc3ccccc3)CC2)cc1
Prompt: // sort entries: IC50, high to low Please list each label once, in the requested order.
Completion: III, I, II, IV

###

Listing of IC50 toward Collagenase 3 (Homo sapiens), each taken from a published source.
MEASURE: IC50 (µM)

| MOLECULE | ASSAY_RESULT |
| --- | --- |
| CC(=O)N1CCC(NS(=O)(=O)c2ccc(OCc3cc(C)nc4ccccc34)cc2)C(C(=O)NO)C1 (mixture of isomers) | 6.63 |
| CNC(=O)CC1SC(c2ccc(OC)cc2)N(C(Cc2ccc(OC(C)(C)C)cc2)C(=O)NO)C1=O (stereo not shown) | 0.063 |

1 = CNC(=O)[C@@H](NC(=O)c1ccc(-c2ccc(OCc3ccncc3C)cn2)o1)C1CCCCC1
2 = O=C(NO)C(Cc1c[nH]c2ccccc12)N1C(=O)CSC1c1ccc(Cl)cc1 (stereo not shown)
Prompt: Lab note: check whether 1 or 2 has the lower measured IC50. Write down the label attached to your selection.
Completion: 1
(1: 0.003 µM, 2: 0.128 µM)

###

Listing of pIC50 toward Collagenase 3 (Homo sapiens, UniProt P45452), each taken from a published source.
pIC50: −log10 of the molar value.
MEASURE: pIC50

| COMPOUND | pIC50 |
| --- | --- |
| C[C@H](Cc1ccc(C(F)(F)F)cc1)C(=O)NC[C@@]1(C2CC2)NC(=O)NC1=O | 5.95 |
| O=C(C[C@H](CCn1nnc2ccccc2c1=O)C(=O)O)c1noc2cc(OCC3CCOCC3)ccc12 (single isomer, unassigned; enantiomer 2) | 5.82 |
| O=C(CC(CCn1nnc2ccccc2c1=O)C(=O)O)c1cc2ccc(OCCc3ccccc3)cc2o1 (racemic) | 5.33 |
| CCCO[C@@H](CS(=O)(=O)Cc1cnc2ccccc2c1)C(=O)NO | 5.15 |
| CNC(=O)[C@@H](NC(=O)c1ccc(-c2ccc(-c3ccc(F)cc3)cn2)o1)C(C)C | 7.11 |
| O=C(CN1C(=O)/C(=C/c2ccccc2)Sc2ccccc21)NO | 5.80 |

P = CCOC(=O)c1cc2cc(-c3nc(C(=O)OCC)[nH]c3C)ccc2[nH]1
Q = O=C(CC(CCn1nnc2ccc(C(F)(F)F)cc2c1=O)C(=O)O)c1noc2cc(OCC3CCOCC3)ccc12 (racemic)
R = CNC(=O)[C@@H](NC(=O)c1ccc(-c2cccc(CNC(=O)c3ccccc3)c2)o1)C(C)C
S = CC#CCOc1ccc(S(=O)(=O)C2(C(=O)NO)CCN(C(=O)c3ccc(OC)cc3)CC2)cc1
T = CNC(=O)[C@@H](NC(=O)c1ccc(-c2ccc(CNC(=O)C3CC3)cc2)o1)C1CCCCC1
Prompt: // smallest pIC50 at index 0, largest at the end Please list each label once, in the requested order.
Completion: Q, T, R, S, P
